Where do the numbers come from? From patent US20240109898A1.

EXPERIMENTAL_PROTOCOL: In vivo pharmacokinetics in mice
CONDITION_PARAMETERS: mouse, plasma, po; male ICR mice, intragastric 10 mg/kg; read-out: Oral maximum plasma concentration Cmax(ng/mL)
VALUE_KIND: Cmax (ng/mL)
Give your result in ng/mL as a bare value.

Task item: Dear colleague, I am looking for the recorded Cmax of the following molecule: C[C@H](c1cc(N[C@H]2CC[C@H](N)C2)n2nccc2n1)C1CC1 [Compound Z-5-2]
Reply: 690

Task item: Next record, please: C[C@H](c1cc(N[C@H]2C[C@H](N)C2)n2nccc2n1)C1CC1 [Compound Z-62-P1]
Reply: 786

Task item: Next record, please: C=CC(C)(C)c1cc(N[C@H]2CC[C@H](N)C2)n2ncc(Cl)c2n1 [Compound Z-56]
Reply: 409

----------
SYSTEM_NAME: CDK9/CycT (Homo sapiens (Human))
Sequence (P50750 whole entry): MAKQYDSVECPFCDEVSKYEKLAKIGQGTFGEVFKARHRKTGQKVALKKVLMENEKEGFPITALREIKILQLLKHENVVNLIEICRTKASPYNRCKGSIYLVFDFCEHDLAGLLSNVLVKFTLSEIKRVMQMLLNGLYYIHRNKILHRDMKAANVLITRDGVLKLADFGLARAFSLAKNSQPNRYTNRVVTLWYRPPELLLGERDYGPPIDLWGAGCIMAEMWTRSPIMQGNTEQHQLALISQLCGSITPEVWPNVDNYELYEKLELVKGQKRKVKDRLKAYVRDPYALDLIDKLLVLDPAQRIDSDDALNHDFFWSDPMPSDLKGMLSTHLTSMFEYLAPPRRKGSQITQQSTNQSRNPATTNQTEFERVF
Sequence (O60563 whole entry partner): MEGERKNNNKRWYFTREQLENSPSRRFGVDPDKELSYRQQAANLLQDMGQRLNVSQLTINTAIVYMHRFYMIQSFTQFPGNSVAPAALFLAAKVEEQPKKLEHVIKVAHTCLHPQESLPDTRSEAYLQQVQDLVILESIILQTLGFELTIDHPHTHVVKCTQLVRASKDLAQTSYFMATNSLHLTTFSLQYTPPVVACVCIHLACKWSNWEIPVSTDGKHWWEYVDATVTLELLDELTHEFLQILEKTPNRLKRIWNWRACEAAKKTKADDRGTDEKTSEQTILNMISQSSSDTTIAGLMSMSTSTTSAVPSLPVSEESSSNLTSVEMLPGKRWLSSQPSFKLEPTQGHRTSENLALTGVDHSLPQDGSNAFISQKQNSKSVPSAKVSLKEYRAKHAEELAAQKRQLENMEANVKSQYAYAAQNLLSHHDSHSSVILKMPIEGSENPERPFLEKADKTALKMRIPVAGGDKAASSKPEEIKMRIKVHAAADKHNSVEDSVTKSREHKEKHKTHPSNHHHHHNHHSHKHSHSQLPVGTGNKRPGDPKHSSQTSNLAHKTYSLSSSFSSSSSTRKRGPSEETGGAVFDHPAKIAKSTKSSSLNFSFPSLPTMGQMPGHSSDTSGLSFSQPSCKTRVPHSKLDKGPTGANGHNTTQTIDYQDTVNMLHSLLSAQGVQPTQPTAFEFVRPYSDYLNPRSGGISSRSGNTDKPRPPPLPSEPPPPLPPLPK
EXPERIMENTAL_PROTOCOL: LANCE Ultra kinase activity inhibition assay, CDK9/CycT
Type: biochemical
CONDITION_PARAMETERS: ATP 10 μM, highest compound concentration 1 μM
Binarize IC50 at 0.03 µM; below is Met, at or above is Not met.

Task item: Check if IC50 falls below 0.03 µM for CC(c1cc(N[C@H]2CC[C@H](N)CC2)n2nccc2n1)C1CC1 (some centres unmarked) .
Reply: Met

Task item: Next record, please: CC(C)(c1cc(N[C@H]2CC[C@H](N)C2)n2ncc(F)c2n1)C1CC1
Reply: Met

Task item: Next record, please: CCc1cnn2c(N[C@H]3CC[C@H](N)C3)cc(C(C)C3CC3)nc12 (some centres unmarked)
Reply: Not met

Task item: Next record, please: Cc1cnn2c(N[C@H]3CC[C@H](N)C3)cc(C(C)C3CC3)nc12 (some centres unmarked)
Reply: Met

Task item: Next record, please: CC1(Cc2cc(N[C@H]3CC[C@H](N)C3)n3nccc3n2)CC1
Reply: Not met

----------
EXPERIMENTAL_PROTOCOL: In vivo pharmacokinetics in mice
CONDITION_PARAMETERS: mouse, plasma, po; male ICR mice, intragastric 10 mg/kg; read-out: Oral maximum plasma concentration Cmax(ng/mL)
VALUE_KIND: Cmax (ng/mL)
Give your result in ng/mL as a bare value.

Task item: Dear colleague, I am looking for the recorded Cmax of the following compound: Cc1cnn2c(N[C@H]3CC[C@H](N)C3)cc(C(C3CC3)C3CC3)nc12
Reply: 740

Task item: Next record, please: CCC(CC)c1cc(N[C@H]2CC[C@H](N)C2)n2nccc2n1 [Compound D, reference compound]
Reply: 433

Task item: Next record, please: C[C@H](c1cc(N[C@H]2CC[C@H](N)C2)n2nccc2n1)C1CCC1 [Compound Z-11-P1]
Reply: 379

Task item: Next record, please: Cc1cnn2c(N[C@H]3CC[C@H](N)C3)cc([C@@H](C)C3CC3)nc12 [Compound Z-32-P2]
Reply: 696

----------
SYSTEM_NAME: CDK1/CycB (Homo sapiens (Human))
Sequence (P06493 whole entry): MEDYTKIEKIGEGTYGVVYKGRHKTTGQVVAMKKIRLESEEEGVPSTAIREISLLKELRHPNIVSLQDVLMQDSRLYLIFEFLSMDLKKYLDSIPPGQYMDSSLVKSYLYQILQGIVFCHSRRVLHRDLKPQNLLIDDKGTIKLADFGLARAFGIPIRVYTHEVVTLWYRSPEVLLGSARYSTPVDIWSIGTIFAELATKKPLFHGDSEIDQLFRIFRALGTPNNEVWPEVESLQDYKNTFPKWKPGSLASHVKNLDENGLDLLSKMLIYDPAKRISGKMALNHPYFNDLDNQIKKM
Sequence (P14635 whole entry partner): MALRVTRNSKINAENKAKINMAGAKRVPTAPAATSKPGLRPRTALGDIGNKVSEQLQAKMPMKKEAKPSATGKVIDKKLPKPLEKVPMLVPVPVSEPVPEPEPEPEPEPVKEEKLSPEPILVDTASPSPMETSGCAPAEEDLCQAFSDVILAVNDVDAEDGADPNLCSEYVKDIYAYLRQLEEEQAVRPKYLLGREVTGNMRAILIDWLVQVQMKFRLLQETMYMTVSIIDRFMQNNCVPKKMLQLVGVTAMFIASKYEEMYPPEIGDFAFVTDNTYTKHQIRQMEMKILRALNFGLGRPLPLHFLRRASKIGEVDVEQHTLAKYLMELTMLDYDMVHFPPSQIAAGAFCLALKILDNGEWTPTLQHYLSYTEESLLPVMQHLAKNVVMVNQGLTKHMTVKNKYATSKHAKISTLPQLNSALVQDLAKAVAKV
EXPERIMENTAL_PROTOCOL: LANCE Ultra kinase activity inhibition assay, CDK1/CycB
Format: biochemical
CONDITION_PARAMETERS: ATP 4 μM, highest compound concentration 10 μM
VALUE_KIND: IC50 (µM)
Give your result in µM as a bare value.

Task item: Dear colleague, I am looking for the recorded IC50 of the following compound: N[C@H]1CC[C@H](Nc2cc(CC3CC3)nc3c(Cl)cnn23)C1
Reply: 1.94

Task item: Next record, please: C=CC(C)(C)c1cc(N[C@H]2CC[C@H](N)C2)n2ncc(F)c2n1
Reply: 5.31

Task item: Next record, please: CC(=N)N[C@H]1CC[C@H](Nc2cc(C(C3CC3)C3CC3)nc3c(C(F)(F)F)cnn23)C1
Reply: 3.47

Task item: Next record, please: CC(c1cc(N[C@H]2CC[C@H](N)C2)n2nccc2n1)(C1CC1)C1CC1
Reply: 1.77

Task item: Next record, please: N[C@H]1CC[C@H](Nc2cc([C@H](F)C3CCC3)nc3ccnn23)C1 [Compound Z-41-P2]
Reply: 2.97

Task item: Next record, please: Cc1cnn2c(N[C@H]3CC[C@H](N)C3)cc(CC3CC3)nc12
Reply: 7.15

Task item: Next record, please: CC(C)(c1cc(N[C@H]2CC[C@H](N)C2)n2ncc(F)c2n1)C1CC1
Reply: 0.924

Task item: Next record, please: N[C@H]1CC[C@H](Nc2cc(CC3CC3)nc3c(F)cnn23)C1
Reply: 2.16

Task item: Next record, please: N[C@H]1CC[C@H](Nc2cc(C(F)C3CCC3)nc3ccnn23)C1 (stereo partly shown)
Reply: 2.26

Task item: Next record, please: C[C@H](c1cc(N[C@H]2CC[C@H](N)C2)n2nccc2n1)C1(C)CC1 [Compound Z-27-P2]
Reply: 2.08

Task item: Next record, please: N[C@H]1CC[C@H](Nc2cc(C(C3CC3)C3CC3)nc3c(Cl)cnn23)C1
Reply: 0.161

Task item: Next record, please: CC[C@H](c1cc(N[C@H]2CC[C@H](N)C2)n2nccc2n1)C1CC1 [Compound Z-28-P2]
Reply: 2.39

Task item: Next record, please: Cc1cnn2c(N[C@H]3CC[C@H](N)C3)cc(CC3(C)CC3)nc12
Reply: 9.87

Task item: Next record, please: N[C@H]1CC[C@H](Nc2cc(C(F)(F)C3CC3)nc3ccnn23)C1
Reply: 7.18

Task item: Next record, please: N[C@H]1CC[C@H](Nc2cc(C(C3CC3)C3CC3)nc3c(F)cnn23)C1
Reply: 0.293

Task item: Next record, please: N[C@H]1CC[C@H](Nc2cc(C(F)C3CC3)nc3ccnn23)C1 (stereo partly shown)
Reply: 4.86

Task item: Next record, please: C=CC(C)(C)c1cc(N[C@H]2CC[C@H](N)C2)n2ncc(Cl)c2n1
Reply: 2.48

Task item: Next record, please: CC(c1cc(N[C@H]2CC[C@H](NC(=N)N)C2)n2ncc(F)c2n1)C1CC1 (stereo partly shown)
Reply: 1.88

Task item: Next record, please: CC(=N)N[C@H]1CC[C@H](Nc2cc(C(C)C3CC3)nc3c(Cl)cnn23)C1 (stereo partly shown)
Reply: 2.31

Task item: Next record, please: CCC(c1cc(N[C@H]2CC[C@H](NC(=N)N)C2)n2nccc2n1)C1CC1 (stereo partly shown)
Reply: 4.59

Task item: Next record, please: N[C@H]1CC[C@H](Nc2cc(C(F)C3CCCC3)nc3ccnn23)C1 (stereo partly shown)
Reply: 3.3

Task item: Next record, please: N#Cc1cnn2c(N[C@H]3CC[C@H](N)C3)cc(C(C3CC3)C3CC3)nc12
Reply: 0.716

Task item: Next record, please: CCC(c1cc(N[C@H]2CC[C@H](N)C2)n2nccc2n1)C1CCC1 (stereo partly shown)
Reply: 7.1

Task item: Next record, please: CC(=N)N[C@H]1CC[C@H](Nc2cc(C(C3CC3)C3CC3)nc3c(Cl)cnn23)C1
Reply: 0.995

Task item: Next record, please: Cc1cnn2c(N[C@H]3CC[C@H](N)C3)cc(C(C)(C)C3CC3)nc12
Reply: 8.09

Task item: Next record, please: CC[C@@H](c1cc(N[C@H]2CC[C@H](N)C2)n2nccc2n1)C1CC1 [Compound Z-28-P1]
Reply: 2.05

Task item: Next record, please: Cc1cnn2c(N[C@H]3CC[C@H](N)C3)cc(C(C)C3CC3)nc12 (stereo partly shown)
Reply: 0.996

Task item: Next record, please: CC1(Cc2cc(N[C@H]3CC[C@H](N)C3)n3nccc3n2)CC1
Reply: 8.45

Task item: Next record, please: CC[C@@H](c1cc(N[C@H]2CC[C@H](N)C2)n2ncc(C)c2n1)C1CC1 [Compound Z-30-P2]
Reply: 3.54

Task item: Next record, please: CC[C@H](c1cc(N[C@H]2CC[C@H](N)C2)n2ncc(C)c2n1)C1CC1 [Compound Z-30-P1]
Reply: 1.12
